Sourced from paper PMC6445163

assay.overview: MTT cytotoxicity test
condition.details: mouse
pIC50: −log10 of the molar value.
measured.quantity: pIC50

compound | pIC50
CS(=O)(=O)Nc1ccc([N+](=O)[O-])cc1Oc1ccccc1 [Nimesulide, reference compound] | ≤ 3.00

// moving on: another record for pIC50
Inquiry: Need pIC50 of CC(C)Cc1ccc(C(C)C(=O)O)cc1 (centres unmarked) [Ibuprofen, reference compound] , thanks.
Reply text: ≤ 3.00

====

assayed.system: T1, COX-1 (Ovis aries, UniProt P05979)
T1 construct: purchased Biovision K548-100
T1 sequence (P05979 25-600): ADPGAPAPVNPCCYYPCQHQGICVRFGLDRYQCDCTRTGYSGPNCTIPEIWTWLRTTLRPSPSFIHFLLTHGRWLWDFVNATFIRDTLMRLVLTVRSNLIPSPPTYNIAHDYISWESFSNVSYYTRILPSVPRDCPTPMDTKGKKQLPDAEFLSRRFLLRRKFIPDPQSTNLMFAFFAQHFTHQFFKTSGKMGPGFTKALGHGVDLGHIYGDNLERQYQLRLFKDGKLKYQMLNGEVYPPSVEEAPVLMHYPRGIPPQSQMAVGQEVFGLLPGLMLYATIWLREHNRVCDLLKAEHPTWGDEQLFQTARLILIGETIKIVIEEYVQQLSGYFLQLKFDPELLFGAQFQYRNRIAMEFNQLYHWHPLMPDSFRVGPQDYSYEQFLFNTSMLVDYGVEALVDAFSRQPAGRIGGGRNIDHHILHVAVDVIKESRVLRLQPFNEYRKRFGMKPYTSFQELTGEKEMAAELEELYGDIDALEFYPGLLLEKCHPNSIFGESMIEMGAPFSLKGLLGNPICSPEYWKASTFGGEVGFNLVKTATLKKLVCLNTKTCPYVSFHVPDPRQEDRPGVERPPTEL
assay.overview: fluorometric COX-1 inhibitor screening kit assay
Assay type: biochemical
condition.details: fluorometric kit, 25 °C
Procedure: Inhibitory potency of the compounds against COX-1 and COX-2 enzymes was determined using fluorometric COX-1 and COX-2 inhibitor screening kits (Biovision, Zurich, Switzerland). Experimental protocol was followed as described in the guides of the supplier[47]^,[48]. […] Appropriate two points (T1 and T2) in the linear range of the plot were chosen, and the corresponding fluorescence values (RFU1 and RFU2) were obtained. […] Selectivity indexes (SI) were expressed as IC50 (COX-1)/IC50 (COX-2). […]
Just a reminder that ties go to condition not met: only IC50 strictly below 20 µM counts as condition met.

molecule | assayed.system | label.class
Cc1ccc2[nH]c(SCc3ccc(C(C)C(=O)O)cc3)nc2c1 (stereo not drawn) [Compound 6j] | T1, COX-1 (Ovis aries, UniProt P05979) | condition met

Inquiry: is_below(IC50, 20 µM) for CC(C(=O)O)c1ccc(CSc2nncn2C)cc1 (stereo not drawn) [Compound 6d] ?
Reply text: condition not met

Inquiry: is_below(IC50, 20 µM) for CC(C(=O)O)c1ccc(CSc2nc3ccccc3[nH]2)cc1 (stereo not drawn) [Compound 6i] ?
Reply text: condition met

Inquiry: is_below(IC50, 20 µM) for COc1ccc2[nH]c(SCc3ccc(C(C)C(=O)O)cc3)nc2c1 (stereo not drawn) [Compound 6l] ?
Reply text: condition met

Inquiry: is_below(IC50, 20 µM) for CC(C(=O)O)c1ccc(CSc2nnnn2C)cc1 (stereo not drawn) [Compound 6e] ?
Reply text: condition not met
